System: hepatocytes
Assay: Hepatocyte stability assay, human
Type: in vitro ADME
Details: 10 μM compound, Table 5
Description: Biological Example 3—Hepatocyte Stability Assay […] The metabolic stability in hepatocytes assay involves a time-dependent reaction using both positive and negative controls. The cells must be pre-incubated at 37° C. then spiked with test compound (and positive control); samples taken at pre-determined time intervals are analysed to monitor the change in concentration of the initial drug compound over 60 minutes. […]
readoutLabel: CIint

Sample records with CIint:
>>> print(df.to_string())
                                   compound              observedresult
0  C[C@H](OC(=O)/C=C/C(=O)OC1CCCCCCC1)C(=O)O       ++++ (++++ means <50)
1  COC(=O)/C=C/C(=O)OCCN1C(=O)CCC1=O [reference compound]  >277 μL min^−1 10^−6 cells
2       O=C(O)CCOC(=O)/C=C/C(=O)OC1CCCCCCC1      +++ (+++ means 50-149)
3          O=C(O)COC(=O)/C=C/C(=O)OC1CCCCC1       ++++ (++++ means <50)
4  O=C(O)COC(=O)/C=C/C(=O)OC1(c2ccc(C(F)(F)F)cc2)CCC1      +++ (+++ means 50-149)

Go through the list and state CIint for each entry.
1. C[C@@H](OC(=O)/C=C/C(=O)OC1CCCCCCC1)C(=O)O
2. CC(CC(=O)O)OC(=O)/C=C/C(=O)OC1CCCCCCC1 (centres unmarked)
3. CCCCCC[C@@H](C)OC(=O)/C=C/C(=O)OCC(=O)O
4. O=C(/C=C/C(=O)OC1(C(=O)O)CC1)OC1CCCCCCC1
5. O=C(O)COC(=O)/C=C/C(=O)OC1CC2(CCC2)C1
6. CC(C)(COC(=O)/C=C/C(=O)OC1CCCCCCC1)C(=O)O

++++ (++++ means <50)
+++ (+++ means 50-149)
+++ (+++ means 50-149)
+++ (+++ means 50-149)
++++ (++++ means <50)
+++ (+++ means 50-149)

Go through the list and state CIint for each entry.
1. O=C(O)CCOC(=O)/C=C/C(=O)OC1CCCCC1
2. O=C(O)COC(=O)/C=C/C(=O)OC1CCCCCC1
3. O=C(O)COC(=O)/C=C/C(=O)OC1CCCCCCC1
4. O=C(O)CCOC(=O)/C=C/C(=O)OC1(c2ccc(C(F)(F)F)cc2)CCC1

+++ (+++ means 50-149)
++++ (++++ means <50)
++++ (++++ means <50)
+++ (+++ means 50-149)

----------
System: hepatocytes
Assay: Hepatocyte stability assay, mouse
Type: in vitro ADME
Conditions: 10 μM compound, Table 6
readoutLabel: CIint

                                   compound         observedresult
0  O=C(O)/C=C/C(=O)OC1(c2cc(Cl)cc(OC(F)(F)F)c2)CCC1 [Intermediate 41]  ++ (++ means >30-110)
1  O=C(O)/C=C/C(=O)OC1(c2ccc(C(F)(F)F)s2)CCC1 [Intermediate 36]  ++ (++ means >30-110)
2  O=C(O)/C=C/C(=O)OC1(c2ccc(C(F)(F)F)c(Cl)c2)CCC1 [Intermediate 26]  ++ (++ means >30-110)

----------
So I've got a bunch of compounds here, and I need their IC50 values.
Tested on: IL-1β
Assay: THP-1 AlphaLISA IL-1β cytokine assay
Type: cell-based
Settings: Homo sapiens; differentiated THP-1 cells, LPS then Nigericin; Table 1

Go through the list and state IC50 for each entry.
1. O=C(O)COC(=O)/C=C/C(=O)OC1CCCCCCC1
2. COC(=O)/C=C/C(=O)OCCN1C(=O)CCC1=O [reference compound]
3. O=C(O)COC(=O)/C=C/C(=O)OC1(c2ccc(C(F)(F)F)cc2)CCC1
4. CC(CC(=O)O)OC(=O)/C=C/C(=O)OC1CCCCCCC1 (stereo not shown)

["2500 to 6100 nM", "6200 nM", "< 2500 nM", "< 2500 nM"]

Go through the list and state IC50 for each entry.
1. CC(C)(COC(=O)/C=C/C(=O)OC1CCCCCCC1)C(=O)O
2. CCCCCC[C@@H](C)OC(=O)/C=C/C(=O)OCC(=O)O
3. O=C(O)COC(=O)/C=C/C(=O)OC1CCCCCC1
4. O=C(O)CCOC(=O)/C=C/C(=O)OC1CCCCCCC1
5. O=C(O)COC(=O)/C=C/C(=O)OC1CC2(CCC2)C1
6. O=C(O)CCOC(=O)/C=C/C(=O)OC1(c2ccc(C(F)(F)F)cc2)CCC1

1. < 2500 nM
2. 2500 to 6100 nM
3. < 2500 nM
4. < 2500 nM
5. 2500 to 6100 nM
6. 2500 to 6100 nM

----------
Experiment: Hepatocyte stability assay, human
Type: in vitro ADME
Conditions: cryopreserved hepatocytes, 10 μM compound, Table 5, read-out: T½
readoutLabel: half-life at 10 μM

                                   compound  observedresult
0  O=C(O)CCOC(=O)/C=C/C(=O)OC1CCCCCCC1 [Example 3]     5 to 29 min
1  O=C(O)COC(=O)/C=C/C(=O)OC1CCCCCC1 [Example 10]   30 to 100 min
2  CC(CC(=O)O)OC(=O)/C=C/C(=O)OC1CCCCCCC1 (stereo not shown) [Example 11]     5 to 29 min
3  CCCCCC[C@@H](C)OC(=O)/C=C/C(=O)OCC(=O)O [Example 13]     5 to 29 min
4  O=C(O)COC(=O)/C=C/C(=O)OC1(c2ccc(C(F)(F)F)cc2)CCC1 [Example 15]     5 to 29 min
5  C[C@@H](OC(=O)/C=C/C(=O)OC1CCCCCCC1)C(=O)O [Example 12]       > 100 min

Go through the list and state half-life at 10 μM for each entry.
1. O=C(O)COC(=O)/C=C/C(=O)OC1CCCCC1 [Example 2]
2. O=C(/C=C/C(=O)OC1(C(=O)O)CC1)OC1CCCCCCC1 [Example 8]

["30 to 100 min", "5 to 29 min"]

Go through the list and state half-life at 10 μM for each entry.
1. O=C(/C=C/C(=O)OC1CCCCCCC1)OCCc1nnn[nH]1 [Example 5]
2. C[C@H](OC(=O)/C=C/C(=O)OC1CCCCCCC1)C(=O)O [Example 6]

5 to 29 min
30 to 100 min

----------
System: hepatocytes
Test: Hepatocyte stability assay, mouse
Type: in vitro ADME
Settings: 10 μM compound, Table 5
readoutLabel: CIint

Sample records with CIint:
In [3]: df
Out[3]:
                                   compound  readoutlabel         observedresult
0  O=C(O)COC(=O)/C=C/C(=O)OC1(c2ccc(C(F)(F)F)cc2)CCC1 [Example 15]         CIint       + (+ means >277)
1  O=C(O)COC(=O)/C=C/C(=O)OC1CCCCC1 [Example 2]         CIint  ++ (++ means 200-277)
2  O=C(O)COC(=O)/C=C/C(=O)OC1CCCCCCC1 [Example 1]         CIint       + (+ means >277)
3  CCCCCC[C@@H](C)OC(=O)/C=C/C(=O)OCCC(=O)O [Example 14]         CIint       + (+ means >277)
4  CC(C)(COC(=O)/C=C/C(=O)OC1CCCCCCC1)C(=O)O [Example 7]         CIint       + (+ means >277)
5  CCCCCC[C@@H](C)OC(=O)/C=C/C(=O)OCC(=O)O [Example 13]         CIint       + (+ means >277)

Go through the list and state CIint for each entry.
1. O=C(O)COC(=O)/C=C/C(=O)OC1CCCCCC1 [Example 10]
2. O=C(O)CCOC(=O)/C=C/C(=O)OC1CCCCCCC1 [Example 3]
3. C[C@H](OC(=O)/C=C/C(=O)OC1CCCCCCC1)C(=O)O [Example 6]
4. O=C(O)CCOC(=O)/C=C/C(=O)OC1(c2ccc(C(F)(F)F)cc2)CCC1 [Example 16]
5. O=C(/C=C/C(=O)OC1(C(=O)O)CC1)OC1CCCCCCC1 [Example 8]
6. C[C@@H](OC(=O)/C=C/C(=O)OC1CCCCCCC1)C(=O)O [Example 12]
7. COC(=O)/C=C/C(=O)OCCN1C(=O)CCC1=O [reference compound]

+ (+ means >277)
+ (+ means >277)
++ (++ means 200-277)
+ (+ means >277)
+ (+ means >277)
+ (+ means >277)
>277 μL min^−1 10^−6 cells

Go through the list and state CIint for each entry.
1. O=C(O)COC(=O)/C=C/C(=O)OC1CC2(CCC2)C1 [Example 9]
2. O=C(O)CCOC(=O)/C=C/C(=O)OC1CCCCC1 [Example 4]
3. O=C(/C=C/C(=O)OC1CCCCCCC1)OCCc1nnn[nH]1 [Example 5]
4. CC(CC(=O)O)OC(=O)/C=C/C(=O)OC1CCCCCCC1 (centres unmarked) [Example 11]

["+ (+ means >277)", "+ (+ means >277)", "+ (+ means >277)", "+ (+ means >277)"]
